Experiment: blockers of DNA damage checkpoint Chk1 activation – imaging, HeLa, hydroxyurea, phospho-Chk1 antibody, percent positive cells, primary screen (AID 1186)
Conditions: hydroxyurea-induced phospho-Chk1 immunofluorescence imaging, higher = more signal
Hi, to clarify the labels: Met covers z-score from -0.05 upward, Not met covers anything below -0.05.

>  <molecule>
C[N+](C)(C)CCCCCCNC(=O)[C@H]1C[C@H]2C(=O)N[C@@H](Cc3ccccc3)C(=O)N2[C@H]1c1cccc(OCCO)c1

>  <label>
Met

$$$$
>  <molecule>
CN(C)CCCCCCNC(=O)[C@@H]1C[C@@H]2C(=O)N3CCC[C@H]3C(=O)N2[C@@H]1c1ccc(O)cc1

>  <label>
Not met

$$$$
>  <molecule>
[N-]=[N+]=Nc1ccccc1C[C@@]1(C(=O)N2CCCCC2)N=C(c2ccc(OCCCO)cc2)O[C@@H]1c1ccccc1N=[N+]=[N-]

>  <label>
Not met

$$$$
>  <molecule>
CC(C)NC(=O)[C@@]1(Cc2ccccc2I)c2ccccc2C(=O)N(Cc2ccccc2Cl)[C@H]1c1ccc(CO)cc1

>  <label>
Not met

$$$$
>  <molecule>
CN1C(=O)C2C=CC(C(O)C=Cc3ccc([N+](=O)[O-])cc3)N(Nc3ccccc3)C2C1=O (stereo not given)

>  <label>
Met

$$$$
>  <molecule>
CCCC[C@@H]1C[C@H]1[C@@H](NC(=O)c1cccnc1)c1ccc(Cl)cc1

>  <label>
Not met

$$$$
>  <molecule>
CO[C@H]1O[C@H](CO)[C@@H](OC(=O)Nc2ccccc2)[C@@H]2OC(=O)[C@@H](Cc3ccc4ccccc4c3)C/C=C/C[C@H](Cc3ccc4ccccc4c3)C(=O)O[C@@H]12

>  <label>
Not met

$$$$
>  <molecule>
CCCNC(=O)[C@@H]1c2ccccc2C(=O)N(Cc2ccccc2OC)[C@H]1c1ccc(CO)cc1

>  <label>
Not met

$$$$
>  <molecule>
CN(C)C(=O)[C@]1(Cc2ccccc2)N=C(c2ccc(OCCCO)cc2)O[C@@H]1c1ccccc1N=[N+]=[N-]

>  <label>
Not met

$$$$
>  <molecule>
C=C(CCCC)C(=O)CC[C@H](OC(=O)c1cccnc1)c1ccc(OCCO)cc1

>  <label>
Met

$$$$
>  <molecule>
CC(C)[Si](C#CCCCC#N)(O[C@H](c1ccccc1)c1cn(Cc2cccc(Cl)c2)nn1)C(C)C

>  <label>
Not met

$$$$
>  <molecule>
NC(=O)NCC#Cc1ccc2c(c1)[C@]1(C(=O)N2)[C@H](C(=O)O)[C@H]2C(=O)O[C@H](c3ccccc3)[C@H](c3ccccc3)N2[C@@H]1c1ccc(O)cc1

>  <label>
Met

$$$$
>  <molecule>
CC(C)(C)OC(=O)CC[C@]1(C(N)=O)N=C(c2ccc(OCCCO)cc2)O[C@H]1c1ccccc1

>  <label>
Met

$$$$
>  <molecule>
COC(=O)[C@@]1(Cc2ccc(OC)cc2)[C@H]2c3cc(C(=O)N4CCCC4)n(CCSCCO)c3C[C@H]2CN1C(=O)c1ccccc1

>  <label>
Met

$$$$
>  <molecule>
COC(=O)C(CC#Cc1ccc2c(c1)[C@]1(C(=O)N2)[C@H](c2ccccc2OCCO)N2[C@H](c3ccccc3)[C@H](c3ccccc3)OC(=O)[C@H]2[C@@H]1C(=O)O)C(=O)OC

>  <label>
Met

$$$$
